The reported numbers originate from PubChem BioAssay (NCI).

TGI by entry:
Tested on: A549 NSCLC
experiment: NCI tumour cell line growth inhibition, 48 h
The figure you give is taken to be in µM; do not add the unit.

O=C(Nc1cccc(-c2nc3ccccc3[nH]2)c1)c1cccc(NC(=O)c2ccco2)c1 | 3.95

The record that follows has no TGI shown yet.
Q: Dear colleague, I am looking for the recorded TGI of the following compound: `CC(=O)CCC(=O)CC(O)(C(F)(F)F)C(F)(F)F`
Result: 41.9

----------
Tested on: OVCAR-5 ovarian
experiment: NCI tumour cell line growth inhibition, 48 h
TGI by entry:

Would you please look over these solved cases?
CCSc1nc(=S)[nH]c2[nH]ncc12 | > 100 µM
N#CCc1[nH]nc2nc(SCc3ccccc3)nc(N3CCCCC3)c12 | 36 µM
C=C(CO)[C@H]1CC/C(C)=C/CC/C(C)=C/C/C=C(\C)[C@H](O)C1 | > 100 µM
O=S(=O)(NCCNc1cc(-c2cn(-c3ccccc3)nc2-c2cccc(O)c2)ccn1)c1ccc(F)cc1 | 5.69 µM
Nc1ccn(C2OC(COP(=O)(O)O)C(O)C2O)c(=O)n1 (configuration not stated) | > 100 µM
Nc1ccccc1C(=O)NNC(=O)c1ccccc1N | > 100 µM
CC(=O)CCC(=O)CC(O)(C(F)(F)F)C(F)(F)F | 29.9 µM
O=C1OC(c2ccccc2)(c2ccccc2)CC1CN1CCOCC1 (configuration not stated) | 67.5 µM

Q: Dear colleague, I am looking for the recorded TGI of the following compound: `CN(C)c1cccc(-c2cc(=O)c3cc4c(cc3[nH]2)OCO4)c1`
Result: 0.92 µM

Q: Dear colleague, I am looking for the recorded TGI of the following compound: `CCOC(=O)CCc1c(C)c2ccc(O)cc2oc1=O`
Result: > 100 µM

Q: Dear colleague, I am looking for the recorded TGI of the following compound: `CNC(=O)c1ccc(Nc2nc(OC3CCCC3)c3c(-c4ccc5nc(C)oc5c4)c[nH]c3n2)c(OC)c1`
Result: > 100 µM

Q: Dear colleague, I am looking for the recorded TGI of the following compound: C/C(=N\[N+](C)(C)C)C(c1ccccc1)C1(c2ccccc2)C(c2ccccc2)=C1c1ccccc1 (configuration not stated)
Result: > 100 µM

Q: Dear colleague, I am looking for the recorded TGI of the following compound: `COc1cc2c3c(n(CCCn4ccnc4)c(=O)c2cc1OC)-c1ccccc1C3=O`
Result: 1.25 µM

Q: Dear colleague, I am looking for the recorded TGI of the following compound: `Cc1nc2c(n1CCCl)C(=O)c1ccccc1C2=O`
Result: 36.3 µM

Q: Dear colleague, I am looking for the recorded TGI of the following compound: `CC1(C)OC(=O)C=C(O)O1.CC1(C)OC(=O)C=C(O)O1.CCO.Oc1ccc2c(c1)CCC2.[Ti]`
Result: > 100 µM

Q: Dear colleague, I am looking for the recorded TGI of the following compound: CC(=O)O[C@H]1C(=O)[C@@]2(C)[C@H]([C@H](OC(=O)c3ccccc3)[C@]3(O)C[C@H](OC(=O)[C@H](OC(=O)CCC(=O)OC4CCC(S/N=C(N)/N=C(\N)N(C)C)CC4)[C@@H](NC(=O)c4ccccc4)c4ccccc4)C(C)=C1C3(C)C)[C@]1(OC(C)=O)CO[C@@H]1C[C@@H]2O (some centres not stated)
Result: > 50 µM

Q: Dear colleague, I am looking for the recorded TGI of the following compound: `O=C(/C=C/c1ccc2c(c1)OCO2)c1ccccc1`
Result: 36.8 µM
